Data origin, for the record: patent US6613734B2

- ASSAY PROTOCOL: pulsating bubble technique ("bubble assay" of Enhorning, Enhorning Surfactometer)
- Format: physicochemical
- CONDITION LABEL: 1 minute; PL (DPPC:PG 3:1) 4 mg/ml; peptide 10% by weight of PL; 37° C.; negative pressure, mean of 3
- Procedure: Measurements of surface pressure across an air-liquid interface (expressed in negative cm of H2O pressure) at minimal (γmin) bubble radius were determined at various times using the pulsating bubble technique described by Enhorning, J. Appl. Physiol. 43: 198-203 (1977). […]
Would you kindly list Pressure Gradient 1′ for each of these substances?

Enquiry: Indicate the recorded Pressure Gradient 1′ value for this substance: RRLLLLLLLRRLLLLLLLRRL [RL7]
Return: 1.25 cm of H2O

Enquiry: Indicate the recorded Pressure Gradient 1′ value for this substance: DTLLGRMLPQLVCRLVLRCSMDD [p59-81]
Return: 1.02 cm of H2O

Enquiry: Indicate the recorded Pressure Gradient 1′ value for this substance: RYSVILLDTLLGRMLPQLVCRLVLRCSMDD [p52-81]
Return: 1.19 cm of H2O

Enquiry: Indicate the recorded Pressure Gradient 1′ value for this substance: p74-81: eight amino acid residue control peptide, residues 74-81 of SEQ ID NO 12 (SP18), does not conform to the teachings of the invention (VLRCSMDD) [reference compound]
Return: 2.32 cm of H2O

Enquiry: Indicate the recorded Pressure Gradient 1′ value for this substance: RLLLLRLLLLRLLLLRLLLLR [RL4]
Return: 0.65 cm of H2O

Enquiry: Indicate the recorded Pressure Gradient 1′ value for this substance: FPIPLPYCWLCRALI [p1-15]
Return: 0.82 cm of H2O

Enquiry: Indicate the recorded Pressure Gradient 1′ value for this substance: LPQLVCRLVLRCSMDD [p66-81]
Return: 1.11 cm of H2O

====

- ASSAY PROTOCOL: observation whether peptide/solvent admixture formed a solution or a suspension
- Type: physicochemical
- CONDITION LABEL: 2.5 μg of peptide per μl of solvent; solvent H2O
MEASURE: Admixture Formed

Sample answers from the record:
C RLVLRCSMDD (N-terminal Cys) [p71-81] ... suspension
VAGGICQCLAERYSV [p41-55] ... solution
ERYSVILLDTLLGRM [p51-65] ... suspension
VAQVCRVVPLVAGGI [p31-45] ... solution
CRALIKRIQAMIPKG [p11-25] ... solution

Turning now to a further substance:
Enquiry: Indicate the recorded Admixture Formed value for this substance: p74-81: eight amino acid residue control peptide, residues 74-81 of SEQ ID NO 12 (SP18), does not conform to the teachings of the invention (VLRCSMDD) [reference compound]
Return: solution
